Assignment: determine reported recombinant barcode read abundance (log10) for the given sequences.
# procedure.details: recombinant barcode read abundance after kanamycin selection (control-corrected) (log10(CPM+1)); higher = more efficient recombination; sequences stand for … in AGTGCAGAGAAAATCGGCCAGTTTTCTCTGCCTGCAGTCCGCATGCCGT…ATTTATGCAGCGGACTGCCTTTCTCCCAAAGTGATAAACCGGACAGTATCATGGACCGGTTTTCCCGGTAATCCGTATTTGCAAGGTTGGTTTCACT; site = the 11-nt target
# output: bare number, no unit

Dear colleague, I am looking for the recorded recombinant barcode read abundance (log10) of the following sequence: GCGGGACGTTGGGTTCTAACCTGTTGCCTAG [GCGGGACCTAG_LTGcore_GT_RTGcore_CT] (site GCGGGACCTAG) (LTG core: GT, RTG core: CT)
0.0984

Dear colleague, I am looking for the recorded recombinant barcode read abundance (log10) of the following sequence: TAGAGGGCCTGGGTTCTAACCTGTTGCGGGG [TAGAGGGCTCC_LTGcore_CC_RTGcore_CC] (site TAGAGGGCTCC) (LTG core: CC, RTG core: CC)
0.132

Dear colleague, I am looking for the recorded recombinant barcode read abundance (log10) of the following sequence: GAGGCCTCATGGGTTCTAACCTGTTGCCATG [GAGGCCTCTTG_LTGcore_CA_RTGcore_CA] (site GAGGCCTCTTG) (LTG core: CA, RTG core: CA)
0.0323

Dear colleague, I am looking for the recorded recombinant barcode read abundance (log10) of the following sequence: ACGGGACGTTGGGTTCTAACCTGTTGCAGAG [ACGGGACCTCT_LTGcore_GT_RTGcore_CT] (site ACGGGACCTCT) (LTG core: GT, RTG core: CT)
0.463

###

# procedure.details: recombinant barcode read abundance after kanamycin selection (control-corrected) (log10(CPM+1)); higher = more efficient recombination; sequences stand for … in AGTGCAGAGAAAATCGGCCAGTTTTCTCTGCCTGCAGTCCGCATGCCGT…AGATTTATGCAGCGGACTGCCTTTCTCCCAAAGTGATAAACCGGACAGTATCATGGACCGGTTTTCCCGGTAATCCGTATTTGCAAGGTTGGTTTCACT; site = the 11-nt target
Assignment: determine reported recombinant barcode read abundance (log10) for the given sequences.
# output: bare number, no unit

Dear colleague, I am looking for the recorded recombinant barcode read abundance (log10) of the following sequence: TGCTAAGCTTGGGTTCTAACCTGTTGCTG (site TGCTAAGCTCA)
0.16

Dear colleague, I am looking for the recorded recombinant barcode read abundance (log10) of the following sequence: ACCATCACTTGGGTTCTAACCTGTTGCCT (site ACAAGCACTAG)
0.103

Dear colleague, I am looking for the recorded recombinant barcode read abundance (log10) of the following sequence: ACGTTGTCTTGGGTTCTAACCTGTTGCCT (site ACATTGTCTAG)
1.24

Dear colleague, I am looking for the recorded recombinant barcode read abundance (log10) of the following sequence: CCTATCCCTTGGGTTCTAACCTGTTGCCT (site CCTATCCCTAG)
1.32

Dear colleague, I am looking for the recorded recombinant barcode read abundance (log10) of the following sequence: GTCGGTACTTGGGTTCTAACCTGTTGCCT (site GTCGGGACTAG)
0.0319

###

Assignment: determine reported recombinant UMI read abundance (log10) for the given sequences.
# procedure.details: recombinant UMI read abundance after kanamycin selection (control-corrected) (log10(CPM+1)); higher = more efficient recombination; extreme values may be limits of the assay; sequences stand for … in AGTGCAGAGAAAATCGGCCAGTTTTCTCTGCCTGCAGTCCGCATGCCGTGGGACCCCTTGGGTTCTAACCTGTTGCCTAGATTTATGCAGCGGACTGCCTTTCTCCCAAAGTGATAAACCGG…AGGTTGGTTTCACT; site = the 11-nt donor

Dear colleague, I am looking for the recorded recombinant UMI read abundance (log10) of the following sequence: TTTACGGCATGGACCGGTTTTCCCGGTAATCCGTATTTGCT (site TTTCCGGCTAG)
0.00939

Dear colleague, I am looking for the recorded recombinant UMI read abundance (log10) of the following sequence: TCTGAATCATGGACCGGTTTTCCCGGTAATCCGTATTTGAC (site TCTGAATCTGT)
0

Dear colleague, I am looking for the recorded recombinant UMI read abundance (log10) of the following sequence: GCAAGCTCATGGACCGGTTTTCCCGGTAATCCGTATTTGTG (site GCAAGCTCTCA)
2.55

Dear colleague, I am looking for the recorded recombinant UMI read abundance (log10) of the following sequence: ATGAAGGCATGGACCGGTTTTCCCGGTAATCCGTATTTGCA (site AGGAAGACTTG)
0.763

Dear colleague, I am looking for the recorded recombinant UMI read abundance (log10) of the following sequence: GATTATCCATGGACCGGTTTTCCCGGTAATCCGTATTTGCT (site GATTATCCTTG)
0
